# Assay Method Text: Aqueous solubility at pH 8.0 by HPLC
# Assay type: physicochemical
Experimental Readout: solubility

Past entries and their recorded results:
compound=CC(=O)Nc1cc(-c2cc(F)cc(O[C@H]3CCN(C)C3)c2)nc(-n2nc(C)cc2C)n1 experimental_value="> 4000 µg/mL"
compound=COc1c(F)cccc1-c1cc(NC(C)=O)nc(-n2nc(C)cc2C)n1 experimental_value="< 100 µg/mL"
compound="CC(=O)Nc1cc(-c2cccc(OC3CCN(C)C3)c2)nc(-n2nc(C)cc2C)n1 (stereo not given)" experimental_value="> 4000 µg/mL"
compound=CC(=O)Nc1cc(-c2cccc(OCCN(C)C)c2)nc(-n2nc(C)cc2C)n1 experimental_value="> 4000 µg/mL"

Alright, here's another compound for you.
*Q* Given the entry COc1cc(OC)cc(-c2cc(NC(C)=O)nc(-n3nc(C)cc3C)n2)c1 , report its measured solubility.
*A* < 100 µg/mL

----------
# Species: Homo sapiens
# Assay Method Text: Selectivity for human adenosine A2A receptor over human adenosine A1 receptor
Let's look at some compounds and their measured Ratio Ki.
Lab note: jot the number down without any unit.

compound=CC(=O)Nc1cc(-c2cc(F)cc(O[C@H]3CCN(C)C3)c2)nc(-n2nc(C)cc2C)n1 experimental_value=218
compound=CC(=O)Nc1cc(-c2cccc(O[C@@H]3CCN(C)C3)c2)nc(-n2nc(C)cc2C)n1 experimental_value=145
compound=CC(=O)Nc1cc(-c2cccc(C)c2)nc(-n2nc(C)cc2C)n1 experimental_value=59
compound="CC(=O)Nc1cc(-c2cccc(OC3CCCN(C)C3)c2)nc(-n2nc(C)cc2C)n1 (stereo not given)" experimental_value=203

*Q* Fill in: Ratio Ki of CC(=O)Nc1cc(-c2cccc(OC3CCN(C)CC3)c2)nc(-n2nc(C)cc2C)n1 is ___
*A* 146

*Q* What measured Ratio Ki goes with CC(=O)Nc1cc(-c2cccc(O)c2)nc(-n2nc(C)cc2C)n1 ?
*A* 74

*Q* Quick one: Ratio Ki for COc1cc(OC)cc(-c2cc(NC(C)=O)nc(-n3nc(C)cc3C)n2)c1 ?
*A* 111

*Q* Look at this compound and give its reported Ratio Ki. COc1c(F)cccc1-c1cc(NC(C)=O)nc(-n2nc(C)cc2C)n1
*A* 164

*Q* Suppose we examine the compound CC(=O)Nc1cc(-c2cccc(OC3CCN(C)C3)c2)nc(-n2nc(C)cc2C)n1 (stereo not given) ; what Ratio Ki value has been reported?
*A* 191

*Q* May I ask what Ratio Ki has been recorded for COc1ccc(-c2cc(NC(C)=O)nc(-n3nc(C)cc3C)n2)cc1 ?
*A* 44

Data origin: ChEMBL document CHEMBL1152249
